Quick reference for pIC50 among some molecules
target: ATP-sensitive inward rectifier potassium channel 1 (Homo sapiens); assay: Inhibition of human Kir1.1 expressed in HEK293 cells after 30 mins by thallium flux assay
Reminder that pIC50 is minus the log10 of a molar concentration.

Field: example entries. Status: answers known.
- C[C@@H]1CC2(CCN(C[C@H](O)c3ccc4c(c3)-c3nnnn3C4)CC2)C(=O)N1C1=CC(=O)OC1: 7.49
- CC1=C(N2CCC3(CCN(C[C@H](O)c4cc5c(cc4Cl)Cn4nnnc4-5)CC3)C2=O)COC1=O: 7.51
- C[C@H]1CC2(CCN(C[C@@H](O)c3ccc4c(c3)-c3nnnn3C4)CC2)C(=O)N1C1=CC(=O)OC1: 7.85
- CC1=C(N2CCC3(CCN(C[C@H](O)c4ccc5c(c4)-c4nnnn4C5)C[C@@H]3F)C2=O)COC1=O (stereo partly specified): 7.46
- CC1=C(N2CCC3(CCN(C[C@H](O)c4ccc5c(c4)-c4nnnn4C5)CC3)C2=O)COC1=O: 7.96

Which value of pIC50 has been reported for CC1=C(N2CCC3(CCN(C[C@@H](O)c4ccc5c(c4)-c4nnnn4C5)CC3)C2=O)COC1=O in the records?
7.72

Find the recorded pIC50 belonging to CC1=C(N2CCC3(CCN(C[C@@H](O)c4cc5c(cc4Cl)Cn4nnnc4-5)CC3)C2=O)COC1=O and report it.
8.05

For CC1=C(N2CCC3(CCN(C[C@H](O)c4cc5c(cc4C)Cn4nnnc4-5)CC3)C2=O)COC1=O , what is its reported pIC50?
7.77

* * *

target: ATP-sensitive inward rectifier potassium channel 1 (Homo sapiens, UniProt P48048); assay: Inhibition of human Kir1.1 expressed in HEK293 cells after 30 mins by thallium flux assay
Sequence (P48048 whole entry): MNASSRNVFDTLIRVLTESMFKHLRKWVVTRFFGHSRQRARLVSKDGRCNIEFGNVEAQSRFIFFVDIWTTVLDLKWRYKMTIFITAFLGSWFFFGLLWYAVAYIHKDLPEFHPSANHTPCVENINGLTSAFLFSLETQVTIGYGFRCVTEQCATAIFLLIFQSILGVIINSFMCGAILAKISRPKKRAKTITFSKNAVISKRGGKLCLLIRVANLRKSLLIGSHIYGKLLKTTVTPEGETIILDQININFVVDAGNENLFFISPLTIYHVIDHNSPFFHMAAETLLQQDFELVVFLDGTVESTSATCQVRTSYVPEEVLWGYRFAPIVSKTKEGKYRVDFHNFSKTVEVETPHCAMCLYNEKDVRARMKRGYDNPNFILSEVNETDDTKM
# key: entry, value: pIC50
pIC50 here: minus log base 10 of the concentration, concentration in moles per litre.

Sample records with pIC50:
* C[C@@H]1CC2(CCN(C[C@@H](O)c3ccc4c(c3)-c3nnnn3C4)CC2)C(=O)N1C1=CC(=O)OC1 | 8.15
* C[C@H]1CC2(CCN(C[C@H](O)c3ccc4c(c3)-c3nnnn3C4)CC2)C(=O)N1C1=CC(=O)OC1 | 7.70

Please find the next compound below.
Lab request: please report pIC50 under test system ATP-sensitive inward rectifier potassium channel 1 (Homo sapiens, UniProt P48048) for CC1=C(N2CCC3(CCN(C[C@H](O)c4ccc5c(c4)-c4nnnn4C5)C[C@H]3F)C2=O)COC1=O (stereo partly drawn)
7.37
